Consider the following compounds and their measured IC50 readings.
System: SARS-CoV-2, isolate USA-WA1/2020 (SARS-CoV-2 New York)
method.notes: SARS-CoV-2 anti-viral assay New York (N-protein staining)
Assay type: cell-based
assay.setup: Severe acute respiratory syndrome coronavirus 2; SARS-CoV-2 New York isolate, 48 hours; read-out: Anti-Viral NY IC50
reported.metric: IC50 (nM)

compound: O=C(Nc1ccc(CN2CCOCC2)cc1)c1cnc(Cl)nc1
measured.result: 1200

compound: O=C(Nc1ccc(CN2CC3(CCOCC3)C2)cc1)c1ccc(Cl)cc1
measured.result: 700

compound: O=C(Nc1ccc(CN2C[C@H]3COC[C@H]3C2)cc1)c1ccc(Cl)cc1
measured.result: 200

compound: O=C(Nc1ccc(CN2CCC3(CCCO3)C2)cc1)c1ccc(Cl)cc1 (centres unmarked)
measured.result: 6400

compound: CN1CCN(Cc2ccc(NC(=O)c3ccc(Cl)cc3)cc2)CC1
measured.result: 700

###

Tested on: SARS-CoV-2 isolate BetaCoV/France/IDF0372/2020 (SARS-CoV-2 Paris)
method.notes: Viral quantification via plaque assay in Paris
Type: cell-based
assay.setup: Severe acute respiratory syndrome coronavirus 2

smiles.structure: CN1CCN(Cc2ccc(NC(=O)c3ccc(Cl)cc3)cc2)CC1
system: SARS-CoV-2 isolate BetaCoV/France/IDF0372/2020 (SARS-CoV-2 Paris)
IC50 (nM): 2700

smiles.structure: O=C(Nc1ccc(CN2CCC(O)CC2)cc1)c1ccc(Cl)cc1
system: SARS-CoV-2 isolate BetaCoV/France/IDF0372/2020 (SARS-CoV-2 Paris)
IC50 (nM): 2100

smiles.structure: O=C(Nc1ccc(CN2C[C@H]3COC[C@H]3C2)cc1)c1ccc(Cl)cc1
system: SARS-CoV-2 isolate BetaCoV/France/IDF0372/2020 (SARS-CoV-2 Paris)
IC50 (nM): 2800

smiles.structure: O=C(Nc1ccc(CN2CC3(CCOCC3)C2)cc1)c1ccc(Cl)cc1
system: SARS-CoV-2 isolate BetaCoV/France/IDF0372/2020 (SARS-CoV-2 Paris)
IC50 (nM): 1400

smiles.structure: O=C(Nc1ccc(CN2CCCOCC2)cc1)c1ccc(Cl)cc1
system: SARS-CoV-2 isolate BetaCoV/France/IDF0372/2020 (SARS-CoV-2 Paris)
IC50 (nM): 1800

The origin of these recorded values is patent US11440918B2.
